system: XF498; assay: NCI tumour cell line growth inhibition, 48 h
Activity calls are given as the source filed them. Cut-off read from the data, not from the text of the source: active = GI50 up to about 1.1 µM and inactive = higher.
Possible outcomes: true (1) (active), false (0) (inactive)

{"columns": ["molecule", "class assignment"],
 "data": [
  ["CC1(C)C(=O)/C=C\\C(=O)C(C)(C)C(=O)/C=C\\C(=O)C(C)(C)C2=CC=C(O2)C(C)(C)C(=O)/C=C\\C1=O", "false (0)"],
  ["CC(=O)OCCOCBr", "false (0)"],
  ["O=C1C2CCC(C2)C12CC1(c3ccccc3)C(=O)c3ccccc3N1O2 (configuration not stated)", "false (0)"],
  ["CCOC(=O)C(C(CC(=O)OC)NC(=O)OCc1ccccc1)C1(C)OCCO1 (configuration not stated)", "false (0)"],
  ["Cc1ccc(/C=C/C(=O)c2cccc3ccccc23)cc1", "false (0)"],
  ["O=C1CC[C@@H](S(=O)(=O)c2ccccc2)[C@@H](/C=C/c2ccccc2)O1", "true (1)"],
  ["CCOc1ccc(NC(=O)C2=C(C)NC(C)=C(C(=O)Nc3ccc(OCC)cc3)C2c2ccc([N+](=O)[O-])cc2)cc1", "false (0)"]
]}
